Measured melting point, listed per entry for reference.

Below, 7 compounds whose answers are already recorded.
INSERT INTO results (compound, result_value) VALUES
  ('Cc1cccc(-c2n[nH]cc2-c2ccc(F)c(-c3ccc(O)cc3)c2)n1 [Example 197]', '72 to 74 °C'),
  ('Cc1cccc(-c2[nH]c(C(C)C)nc2-c2cccc(-c3ccc4c(c3)CCCS4)c2)n1 [Example 82]', '115 to 117 °C'),
  ('Cc1cccc(-c2n[nH]cc2-c2ccc(F)c(-c3cn(C)cn3)c2)n1 [Example 172]', '168 to 169 °C'),
  ('Cc1cccc(-c2[nH]c(C(C)C)nc2-c2cccc(-c3ccc(NS(=O)(=O)C4CC4)cc3F)c2)n1 [Example 74]', '124 to 128 °C'),
  ('Cc1cccc(-c2n[nH]cc2-c2ccc(F)c(-c3ccc[nH]3)c2)n1 [Example 193]', '141 to 142 °C'),
  ('Cc1cccc(-c2n[nH]cc2-c2ccc(F)c(-c3cc(F)c(S(N)(=O)=O)cc3F)c2)n1 [Example 149]', '122 to 125 °C'),
  ('Cc1cccc(-c2n[nH]cc2-c2ccc(F)c(-c3ccc(N4CCN(C)CC4)nc3)c2)n1 [Example 187]', '86 °C');

Input: What melting point value was documented for this compound, Cc1cccc(-c2nc[nH]c2-c2ccc(F)c(-c3cnn(C)c3)c2)n1 [Example 121] ?
Output: 205 °C

###

Measured melting point, listed per entry for reference.

INSERT INTO results (compound, quantity_measured, result_value) VALUES
  ('CCc1cccc(-c2[nH]c(C(C)C)nc2-c2cccc(-c3ccc(S(C)(=O)=O)cc3)c2)n1', 'melting point', '108 to 110 °C'),
  ('Cc1cccc(-c2n[nH]cc2-c2ccc(F)c(-c3c[nH]c(CCN4CCOCC4)n3)c2)n1', 'melting point', '239 to 240 °C'),
  ('Cc1cccc(-c2nc(N)sc2-c2ccc(F)c(-c3ccc(S(C)(=O)=O)cc3)c2)n1', 'melting point', '202 to 204 °C'),
  ('Cc1cccc(-c2n[nH]cc2-c2ccc(F)c(-c3ccc(S(N)(=O)=O)c(C(F)(F)F)c3)c2)n1', 'melting point', '107 to 110 °C'),
  ('Cc1cccc(-c2[nH]c(C(C)C)nc2-c2cccc(-c3ccc(NC(=O)C(C)(C)O)cc3)c2)n1', 'melting point', '123 to 135 °C');

Input: What melting point value was documented for this compound, `Cc1cccc(-c2[nH]c(C(C)C)nc2-c2ccc(F)c(-c3ccc(S(N)(=O)=O)cc3)c2)n1` ?
Output: 245 to 246 °C

###

quantity.measured: melting point

INSERT INTO results (compound, result_value) VALUES
  ('Cc1cccc(-c2n[nH]cc2-c2ccc(F)c(-c3ccc(S(N)(=O)=O)c(F)c3)c2)n1', '119 to 121 °C'),
  ('Cc1cccc(-c2n[nH]cc2-c2ccc(F)c(-c3cn[nH]c3)c2)n1', '110 to 112 °C'),
  ('Cc1cccc(-c2[nH]c(C(C)C)nc2-c2cccc(-c3ccc(NS(=O)(=O)C4CC4)cn3)c2)n1', '133 to 136 °C'),
  ('Cc1cccc(-c2n[nH]cc2-c2ccc(F)c(-c3ccc(S(=O)(=O)C(F)F)cc3)c2)n1', '80 to 82 °C'),
  ('Cc1cccc(-c2[nH]c(C(C)C)nc2-c2cccc(-n3ccnc3)c2)n1', '158 to 161 °C'),
  ('CSc1ccc(-c2cccc(-c3nc(C(C)C)[nH]c3-c3cccc(C)n3)c2)cc1', '80 to 82 °C'),
  ('NS(=O)(=O)c1ccc(-c2cc(-c3c[nH]nc3-c3cccc(C4CC4)n3)ccc2F)cc1', '225 to 226 °C'),
  ('Cc1cccc(-c2[nH]c(C(C)C)nc2-c2cccc(-c3ccc4c(c3)CCC[S+]4[O-])c2)n1 (stereo not drawn)', '136 to 139 °C');

Field: next compound
Input: What melting point value was documented for this compound, `Cc1cccc(-c2n[nH]cc2-c2ccc(F)c(-c3cn(CCN4CCOCC4)cn3)c2)n1` ?
Output: 144 to 145 °C

###

Measured melting point, listed per entry for reference.

Below, 3 compounds whose answers are already recorded.
INSERT INTO assay_data (chemical_string, quantity_measured, result_value) VALUES
  ('Cc1cccc(-c2n[nH]cc2-c2ccc(F)c(-c3ccc(SCCO)cc3)c2)n1', 'melting point', '150 to 152 °C'),
  ('Cc1cccc(-c2[nH]c(C(C)C)nc2-c2cccc(-c3ccc(C(=O)NC4CCOCC4)cc3)c2)n1', 'melting point', '140 °C'),
  ('CCS(=O)(=O)c1ccc(-c2cccc(-c3nc(C(C)C)[nH]c3-c3cccc(C)n3)c2)cc1', 'melting point', '103 to 116 °C');

Field: next compound
Input: What melting point value was documented for this compound, `Cc1cccc(-c2[nH]c(C(C)C)nc2-c2cccc(-c3cccc(NS(C)(=O)=O)c3)c2)n1` ?
Output: 108 to 112 °C

###

Measured melting point, listed per entry for reference.

INSERT INTO measurements (compound, result_value) VALUES
  ('Cc1cccc(-c2[nH]c(C(C)C)nc2-c2cccc(-c3ccc(CN)cc3)c2)n1 [Example 29]', '113 to 123 °C (dec.)'),
  ('Cc1cccc(-c2n[nH]cc2-c2ccc(F)c(-c3csc(CO)n3)c2)n1 [Example 182]', '89 to 92 °C'),
  ('Cc1cccc(-c2nc(C(C)C)[nH]c2-c2cccc(-c3ccc(C(=O)N4CC[S+]([O-])CC4)cc3)c2)n1 [Example 56]', '136 to 140 °C');

Input: What melting point value was documented for this compound, Cc1cccc(-c2[nH]c(C(C)C)nc2-c2ccc(F)c(-c3c[nH]nn3)c2)n1 [Example 106] ?
Output: 233 to 235 °C

Input: What melting point value was documented for this compound, Cc1cccc(-c2[nH]c(C(C)C)nc2-c2cccc(-c3ccc4c(c3)CCS4(=O)=O)c2)n1 [Example 86] ?
Output: 128 to 131 °C

Input: What melting point value was documented for this compound, Cc1cccc(-c2nc(N)sc2-c2ccc(F)c(-c3ccc(S(N)(=O)=O)cc3)c2)n1 [Example 216] ?
Output: 190 to 192 °C

Input: What melting point value was documented for this compound, Cc1cccc(-c2[nH]c(C(C)C)nc2-c2ccc(F)c(-c3ccc(C(=O)O)cc3)c2)n1 [Example 101] ?
Output: 160 to 161 °C

Input: What melting point value was documented for this compound, Cc1cccc(-c2[nH]c(C(C)C)nc2-c2ccc(F)c(-c3ccc(O)cc3)c2)n1 [Example 114] ?
Output: 143 to 145 °C

###

Measured melting point, listed per entry for reference.

Below, 2 molecules whose answers are already recorded.
INSERT INTO measurements (molecule, result_value) VALUES
  ('Cc1cccc(-c2[nH]c(C(C)C)nc2-c2ccc(F)c(-c3ccc4c(c3)CCS4(=O)=O)c2)n1 [Example 125]', '119 to 123 °C'),
  ('Cc1cccc(-c2n[nH]cc2-c2ccc(F)c(-c3c[nH]c(C(C)(C)O)n3)c2)n1 [Example 161]', '135 to 137 °C');

Input: What melting point value was documented for this molecule, Cc1cccc(-c2n[nH]cc2-c2ccc(F)c(-c3c[nH]c(CO)n3)c2)n1 [Example 208] ?
Output: 243 to 246 °C

Input: What melting point value was documented for this molecule, Cc1cccc(-c2n[nH]cc2-c2ccc(F)c(-c3ccc(S(N)(=O)=O)cc3)c2)n1 [Example 190] ?
Output: 115 to 118 °C

Input: What melting point value was documented for this molecule, Cc1cccc(-c2n[nH]cc2-c2ccc(F)c(-c3cn(CCN(C)C)cn3)c2)n1 [Example 186] ?
Output: 130 to 131 °C

Input: What melting point value was documented for this molecule, Cc1cccc(-c2n[nH]cc2-c2ccc(F)c(-c3ccc(S(=O)(=O)CCO)cc3)c2)n1 [Example 170] ?
Output: 88 to 90 °C

Input: What melting point value was documented for this molecule, Cc1cccc(-c2[nH]c(C(C)C)nc2-c2cccc(-c3ccc(NS(=O)(=O)C4CC4)cc3)c2)n1 [Example 31] ?
Output: 135 to 145 °C

Input: What melting point value was documented for this molecule, Cc1cccc(-c2[nH]c(C(C)C)nc2-c2ccc(F)c(-c3c[nH]c(=O)[nH]3)c2)n1 [Example 140] ?
Output: 177 to 180 °C

Input: What melting point value was documented for this molecule, Cc1cccc(-c2[nH]c(C(C)C)nc2-c2cccc(-c3ccncc3)c2)n1 [Example 12] ?
Output: 84 to 86 °C

Input: What melting point value was documented for this molecule, Cc1cccc(-c2n[nH]cc2-c2ccc(F)c(-c3ccc(N4CCN(C)CC4)cn3)c2)n1 [Example 188] ?
Output: 97 °C

Input: What melting point value was documented for this molecule, Cc1cccc(-c2n[nH]cc2-c2ccc(F)c(-c3ccc(S(=O)(=O)C(F)(F)F)cc3)c2)n1 [Example 168] ?
Output: 81 to 84 °C

Input: What melting point value was documented for this molecule, Cc1cccc(-c2[nH]c(C(C)C)nc2-c2cccc(-c3ccoc3)c2)n1 [Example 21] ?
Output: 74 to 78 °C

Input: What melting point value was documented for this molecule, Cc1cccc(-c2[nH]c(C(C)C)nc2-c2cccc(-c3ccccc3F)c2)n1 [Example 6] ?
Output: 153 to 155 °C

Input: What melting point value was documented for this molecule, COC(C)(C)c1ccc(-c2cc(-c3c[nH]nc3-c3cccc(C)n3)ccc2F)nc1 [Example 173] ?
Output: 168 to 169 °C

Input: What melting point value was documented for this molecule, Cc1cccc(-c2[nH]c(C(C)C)nc2-c2cccc(-c3ccc[nH]3)c2)n1 [Example 23] ?
Output: 103 to 107 °C

Input: What melting point value was documented for this molecule, Cc1cccc(-c2n[nH]cc2-c2ccc(F)c(-c3cn4c(n3)S(=O)(=O)CC4)c2)n1 [Example 212] ?
Output: 134 to 138 °C

Input: What melting point value was documented for this molecule, Cc1cccc(-c2[nH]c(C(C)C)nc2-c2ccc(F)c(-c3nc[nH]n3)c2)n1 [Example 133] ?
Output: 184 to 186 °C

Input: What melting point value was documented for this molecule, Cc1cccc(-c2n[nH]cc2-c2ccc(F)c(-c3cnn(CCN4CCOCC4)c3)c2)n1 [Example 175] ?
Output: 124 °C

Input: What melting point value was documented for this molecule, Cc1cccc(-c2[nH]c(C(C)C)nc2-c2cccc(-c3ccc(N)cc3)c2)n1 [Example 28] ?
Output: 107 to 117 °C

Input: What melting point value was documented for this molecule, Cc1cccc(-c2[nH]c(C(C)C)nc2-c2ccc(F)c(-c3ccc(NC(=O)NN4CCN(C)CC4)cc3)c2)n1 [Example 92] ?
Output: 145 °C

Input: What melting point value was documented for this molecule, Cc1cccc(-c2[nH]c(C(C)C)nc2-c2cccc(-c3cc[nH]c3)c2)n1 [Example 78] ?
Output: 112 to 114 °C

Input: What melting point value was documented for this molecule, Cc1cccc(-c2[nH]c(C(C)C)nc2-c2cccc(-c3ccsc3)c2)n1 [Example 14] ?
Output: 83 to 85 °C

Input: What melting point value was documented for this molecule, Cc1cccc(-c2n[nH]cc2-c2ccc(F)c(-c3ccc(NC(=O)NN4CCOCC4)cc3)c2)n1 [Example 192] ?
Output: 131 to 133 °C

Input: What melting point value was documented for this molecule, Cc1cccc(-c2[nH]c(C(C)C)nc2-c2ccc(F)c(-c3ccc(S(C)(=O)=O)cc3)c2)n1 [Example 61] ?
Output: 113 to 115 °C

Input: What melting point value was documented for this molecule, COc1ccc(-c2cccc(-c3nc(C(C)C)[nH]c3-c3cccc(C)n3)c2)cn1 [Example 13] ?
Output: 72 to 74 °C

Input: What melting point value was documented for this molecule, Cc1cccc(-c2nc(C(C)C)[nH]c2-c2ccc(F)c(-c3cnn(C)c3)c2)n1 [Example 110] ?
Output: 77 to 97 °C

Input: What melting point value was documented for this molecule, CC(=O)Nc1ccc(-c2cccc(-c3nc(C(C)C)[nH]c3-c3cccc(C)n3)c2)cc1 [Example 32] ?
Output: 140 to 145 °C

Input: What melting point value was documented for this molecule, Cc1cccc(-c2n[nH]cc2-c2ccc(F)c(-c3ccc(C(C)(O)C(F)(F)F)cn3)c2)n1 (centres unmarked) [Example 164] ?
Output: 197 to 198 °C

Input: What melting point value was documented for this molecule, CCC(O)(CC)c1ccc(-c2cc(-c3c[nH]nc3-c3cccc(C)n3)ccc2F)nc1 [Example 174] ?
Output: 94 to 95 °C

The reported measurements were obtained from patent US20070275968A1.
